assay: yeast display, Sf9 membrane polyspecificity reagent, FACS + sequencing; frameworks hold sequencing errors
experimental-readout: polyreactivity (PSR sort gate)

HVQLQESGGGLVQAGGSLRLSCAASGSIFQATYMGWYRQAPGKEREFVASITYGSITNYADSVKGRFTIGRDNAKDTLYLQMNSLKPEDTAVYYCAVDRHYIPAFHYWGQGTEVTVSS low polyreactivity
QVQLVESGVGLDQAGGSLRLSCAASGGIIAINAMGWYSQAPGKERELVAAISWGDGMTYYADSVKGRFTISRDNAKNTVYLQMNSLKPDDSAVYYCAADADEYRGGDVSWGQGTQVTVSS low polyreactivity

---

experiment: yeast display, Sf9 membrane polyspecificity reagent, FACS + sequencing; frameworks hold sequencing errors
experimental-readout: polyreactivity (PSR sort gate)

The following sequences have reported results that may help.
QVQLVESGGGLVQAGGSLRFSCAASGTFVPYAMGWYRQAPGKEMELVARITWRGGSTYYADSVKGRFTISRDNAKNTVYLQMNSLKPEDTAVYYCATVSDNRYYYWGQGTQVTVSS low polyreactivity
QVQLVESGGGLVQAGGSLRLSCAASGRIFEFYAMGWYRQAPGKERELVAAISFSGTSTYYADSVKGRFTISRDNAKNTVYLQMNSLKPEDTAVYYCAVRGVGADYDYWGQGTQVTVSS low polyreactivity
QVQLVESGGGLVQAGGSLRLSCAASGFTFAYYAMGWYRLAPGKERELVAAINRSGGSTYYADSVKGRFTISRDNAKNTVYIEMNSLKPEDTAVYYCAAARPSLRDGVAHYYWGQGTQVTVSS high polyreactivity
QVQLVESGGGLVQAGGSLRLSGAASGFIFVRYAMGWYRQAPGKERELVAAITRRGGSTHYADSVKGRFTISRDNAKNTVYLQMNSLTPEDTAVYYCAAGRQYYYLDRFPRVQGDYWGQGTQVTVSS high polyreactivity
QVQLVESGGGLVQAGGSRRLSCAASGSIFTGYAMGWYRQSPGKERELVAAINSNGGRTYYADSVKGRFTISRDNAKNTVYLQMNSLKPEDTAVYYCAADSGRGYRYKTFNWGRFYWGQGTQVTVSS high polyreactivity

Query block: Can you share its polyreactivity (PSR sort gate)? I mean this sequence: QVQLVESAGGLVQAGGSLRLICAASGGTFSTYAIGWYRQAPGKEREFVAAITRSGTSTYYADSVKGRFTISRDNAKNTVYLQMNGLNPEDTAVYYCAAGVYSFRYDYWGQGTQVTVSS
Result block: low polyreactivity

Query block: Can you share its polyreactivity (PSR sort gate)? I mean this sequence: QVQLVESGGGLVQAGGSLRLSCAASGSIFFSYAMGWYRQAPGKERELVAAIDYSGGGTYYADSVKGRFTISRDNAKNTVYLQMNSLKPEDTAVYYCNSDTEVWADTFISYRALNYWGQGTQVTVSS
Result block: low polyreactivity

Query block: Can you share its polyreactivity (PSR sort gate)? I mean this sequence: QVQLVESGGGLVQAGGSLRLSCAASGSTFVSNAMGWYRQAPGKESELVAAISSSGGRTSYADSVKGRFTISRDHANNTVYLQMNSLKPEDTAVYYCNTLVVPYTDFKTSYNVDYWGQGTQVTVSS
Result block: low polyreactivity

---

assay: yeast display, Sf9 membrane polyspecificity reagent, FACS + sequencing; frameworks hold sequencing errors
experimental-readout: polyreactivity (PSR sort gate)

The following sequences have reported results that may help.
QVQLVESGGGLVQAGGSLRLSCAASGLTFQLYGMGWYRQAPGKERELVAAISGSGGRTYYADSVKGRFTISRDNAKNTVYLQMNSLKPEDTAVYYCAARPGSGRSYTSDYWGQGTQVNVSS high polyreactivity
QVQLVESGGGLVQAGGSLRLSCAASGLTFYTYAMGWYRQAPGKERELVAAISSGGSTNYADSVKGRFTISRDNAKNTVYLQMNSLKPEDTAVYYCASGGQYYIIRYDYWGQGTQVTVSS low polyreactivity
QVQLVESGGGLVQAGGSLRLSFAASGSTFRYNTRGWYRQAPGKEREVVATITWDTDSTYYADSVKGRFTISRDNAKNTVYLQMNSLKPEDTAVYYCAAETTWADKSYHYLQEYNYCGQGTQVTVSS low polyreactivity
QVQLVESGGGLVQAGGSLRLSCAASGFSFRGYAMGWYRQAPGKERELVAAINYSGGSTYYADSVKGRFTISRDNAKNTVYLQMNSLKPEDTAVYYCAAGKRGDDDYWGQGTQVTVSS high polyreactivity

Switching to the query record.
Query block: Can you share its polyreactivity (PSR sort gate)? I mean this sequence: QVQLVETGGGLVQAGGSLRLSSAASGGIFSPNAMGWYRQAPGKEREFVAAISSNGGSTNYADSVKGRFTISRDNAKNTVYLQMNSLKPEDTAVYYCAADYPDHPLWGPEYDYWGQRTQVTVSS
Result block: low polyreactivity

Attribution: the nanobody polyreactivity screen of Harvey et al. (2022)
